System: Ca9-22
Test: MTT cytotoxicity assay, Ca9-22
Assay type: cell-based, human
Settings: Homo sapiens, Ca9-22, Table 2, synthesized phenanthrenes
Property measured: IC50

Here are 3 compounds together with their reported answers.
{"columns": ["Query smiles", "Tested on", "IC50"],
 "data": [
  ["COC1=CC(=O)c2ccc3c(-c4c(OC)c(OC)c(OC)c5c6c(ccc45)C(=O)C=C(OC)C6=O)c(OC)c(OC)c(OC)c3c2C1=O", "Ca9-22", "4.36 µg/mL"],
  ["COC1=CC(=O)c2ccc3cc(OC)c(OC)c(OC(C)=O)c3c2C1=O", "Ca9-22", "0.84 µg/mL"],
  ["COC1=CC(=O)c2ccc3cc(OC)cc(OC)c3c2C1=O", "Ca9-22", "15.2 µg/mL"]
]}

Switching to the query record.
What does the data say about its IC50? Entry: `COC1=CC(=O)c2ccc3cc(OC)c(OC)c(OC)c3c2C1=O`
5.99 µg/mL

----------
System: Ca9-22
Experiment: MTT cytotoxicity assay, Ca9-22
Type: cell-based, human
Details: Homo sapiens, Ca9-22, Table 2, synthesized phenanthrenes
Note: every record was labeled by where its IC50 sits among bottom end = under 2 µg/mL, midrange = from 2 µg/mL up to 6 µg/mL, top end = 6 µg/mL and over

Use the examples below as a reference point.
{"columns": ["Compound", "Group"],
 "data": [
  ["COc1cc2ccc3c(OC)ccc(OC)c3c2c(O)c1O", "midrange"],
  ["COc1cc2ccc3c(OC)ccc(OC)c3c2c(O)c1OC", "top end"],
  ["COc1cc(OC)c2c(ccc3c(OC)ccc(OC)c32)c1", "top end"]
]}

Quick check: band for `COc1cc2ccc3c(OC)ccc(OC)c3c2c(OC)c1OC`
top end

Which band does `COC1=CC(=O)c2ccc3c(-c4c(OC)c(OC)c(OC)c5c6c(ccc45)C(OC)=CC(=O)C6=O)c(OC)c(OC)c(OC)c3c2C1=O` fall in?
midrange

Which IC50 band matches `COC1=CC(=O)c2ccc3cc(OC)c(OC)c(O)c3c2C1=O` ?
bottom end

Which IC50 band matches `COc1cc2ccc3c(c2c(OC)c1OC)C(=O)C=CC3=O` ?
midrange

Class for `COc1cc(OC)c2c3c(ccc2c1)C(=O)CC(OC)(OC)C3=O` ?
top end

Which of the defined bands does the recorded IC50 of COc1cc(OC)c2c(ccc3c(OC)ccc(O)c32)c1 [Compound 8b, 4-Hydroxy-1,5,7-trimethoxy-phenanthrene] sit within?
top end

Classify this compound: COc1cccc2c1C(=O)c1c(O)c3c(c(O)c1C2=O)C[C@@](O)(C(=O)CO)C[C@@H]3O[C@H]1C[C@H](N)[C@H](O)[C@H](C)O1 [Doxo, Doxorubicin, reference compound]
bottom end

Exercise: read the entry `COC1=CC(=O)c2ccc3c(-c4c(OC)c(OC)c(OC)c5c6c(ccc45)C(=O)CC(OC)(OC)C6=O)c(OC)c(OC)c(OC)c3c2C1=O` and state which class it falls under.
top end

Which of the defined bands does the recorded IC50 of `COc1cc(OC)c2c3c(ccc2c1)C(=O)C=CC3=O` sit within?
midrange

Band of COc1cc(O)c2c(ccc3c(OC)ccc(OC)c32)c1 [Compound 9b, 5-hydroxy-1,4,7-trimethoxy-phenanthrene] ?
top end

Categorize the following entry: `COC1=CC(=O)c2ccc3cc(OC)cc(OC(C)=O)c3c2C1=O`
bottom end

In plain terms, what class is `COC1=CC(=O)c2ccc3cc(OC)cc(O)c3c2C1=O` ?
bottom end

----------
Test system: HepG2
Assay: MTT cytotoxicity assay, HepG2
Format: cell-based, human
Conditions: Homo sapiens, HepG2, Table 2, synthesized phenanthrenes
# log10(IC50) annotations
The figures below represent log10 of IC50, where IC50 is stated in µg/mL.

Examples from the recorded data:
{"columns": ["Molecule", "log10(IC50)"],
 "data": [
  ["COC1=CC(=O)c2ccc3cc(OC)c(OC)c(O)c3c2C1=O [Compound 6a]", -1.10],
  ["COc1cc(OC)c2c3c(ccc2c1)C(=O)C=CC3=O [Compound 4b, 5,7-Dimethoxy-1,4-phenanthrenequinone]", 1.27],
  ["COC1=CC(=O)c2ccc3cc(OC)cc(OC)c3c2C1=O [Compound 5b, 3,5,7-Trimethoxy-1,4-phenanthrenequinone]", 1.11],
  ["COC1=CC(=O)c2ccc3c(-c4c(OC)c(OC)c(OC)c5c6c(ccc45)C(=O)C=C(OC)C6=O)c(OC)c(OC)c(OC)c3c2C1=O [Compound 5d]", 0.17],
  ["COC1=CC(=O)c2ccc3c(-c4c(OC)c(OC)c(OC)c5c6c(ccc45)C(OC)=CC(=O)C6=O)c(OC)c(OC)c(OC)c3c2C1=O [Compound 5f]", 1.29],
  ["COc1cc(OC)c2c(ccc3c(OC)ccc(O)c32)c1 [Compound 8b, 4-Hydroxy-1,5,7-trimethoxy-phenanthrene]", 1.00],
  ["COC1=CC(=O)c2ccc3cc(OC)cc(OC(C)=O)c3c2C1=O [Compound 7b]", 1.12],
  ["COC1=CC(=O)c2ccc3c(-c4c(OC)c(OC)c(OC)c5c6c(ccc45)C(=O)CC(OC)(OC)C6=O)c(OC)c(OC)c(OC)c3c2C1=O [Compound 5e]", 0.09]
]}

Look up log10(IC50): COC1=CC(=O)c2ccc3cc(OC)c(OC)c(OC)c3c2C1=O [Compound 5a]
0.67

State the recorded log10(IC50) for this entry: COc1cc2ccc3c(c2c(OC)c1OC)C(=O)C=CC3=O [Compound 4a, 5,6,7-Trimethoxy-1,4-phenanthrenequinone]
1.20

Form field: reported log10(IC50) of COc1cc2ccc3c(OC)ccc(OC)c3c2c(O)c1O [Compound 8a]
1.29

----------
Test system: HepG2
Assay: MTT cytotoxicity assay, HepG2
Type: cell-based, human
Details: Homo sapiens, HepG2, Table 2, synthesized phenanthrenes
Property measured: IC50 (µg/mL)
Write down the numeric answer in µg/mL and omit the unit.

{"columns": ["Query smiles", "Reported measurement"],
 "data": [
  ["COC1=CC(=O)c2ccc3cc(OC)cc(O)c3c2C1=O", 0.23]
]}

Next compound, please.
Query: IC50; subject: `COC1=CC(=O)c2ccc3cc(OC)c(OC)c(OC(C)=O)c3c2C1=O`
11.3

----------
Tested on: Hep3B
Assay: MTT cytotoxicity assay, Hep3B
Type: cell-based, human
Conditions: Homo sapiens, Hep3B, Table 1, natural phenanthrenes
Description: The cytotoxic assay of 11 naturally occurring and 19 synthesized phenanthrenes was carried out on a diverse set of human liver (HepG2 and Hep3B), oral (Ca9-22), lung (A549) and breast (MEA-MB-231 and MCF7) cancer cell lines, and a human fetal lung fibroblast (MRC-5) cell line (Tables 1 and 2). […]
Property measured: IC50

Below: 2 compounds and their reported IC50.
{"columns": ["Compound", "IC50"],
 "data": [
  ["COc1cc2ccc3cccc(O)c3c2c(OC)c1O [CA-8]", "> 20 µg/mL"],
  ["COC1=CC(=O)c2ccc3cc(OC)c(O)c(OC)c3c2C1=O [CA-2, calanquinone B]", "11.9 µg/mL"]
]}

Please report the recorded IC50 for COc1cc2c(c(OC)c1O)C1=C(CC2)C(=O)C=CC1=O [CA-3] .
6.02 µg/mL

----------
Test system: MCF-7
Assay: MTT cytotoxicity assay, MCF-7
Assay type: cell-based, human
Settings: Homo sapiens, MCF7, Table S3; read-out: Scale Exptl. (MCF-7 activity class)
Property measured: MCF-7 activity class (from IC50)

Known results for compounds:
{"columns": ["Compound", "Tested on", "Reported measurement"],
 "data": [
  ["COC1=CC(=O)c2ccc3cc(OC)c(OC)c(OC)c3c2C1=O", "MCF-7", "1 to 20 µg/mL"],
  ["COc1cc2c(c(OC)c1O)-c1c(O)ccc(O)c1CC2", "MCF-7", "1 to 20 µg/mL"],
  ["COc1cc(OC)c2c(ccc3c(OC)ccc(O)c32)c1 [Compound 8b, 4-Hydroxy-1,5,7-trimethoxy-phenanthrene]", "MCF-7", "1 to 20 µg/mL"]
]}

Looking for the measured MCF-7 activity class (from IC50) of `COC1=CC(=O)c2ccc3cc(OC)c(OC)c(O)c3c2C1=O` , can you help?
< 1 µg/mL

Recorded MCF-7 activity class (from IC50) of `COc1cc2ccc3cccc(O)c3c2c(OC)c1O` , please.
> 20 µg/mL

Entry `COc1cc2c(c(OC)c1O)C1=C(CC2)C(=O)C=CC1=O` has what MCF-7 activity class (from IC50)?
1 to 20 µg/mL

Please report the recorded MCF-7 activity class (from IC50) for `COc1cc2ccc3c(c2c(OC)c1OC)C(=O)C=CC3=O` .
1 to 20 µg/mL

Consider the compound shown here: `COC1=CC(=O)c2ccc3cc(OC)c(OC)c(OC(C)=O)c3c2C1=O` What is its recorded MCF-7 activity class (from IC50)?
< 1 µg/mL

Returns the measured MCF-7 activity class (from IC50) for the input compound. Input: `COc1cc(OC)c2c(ccc3c(OC)ccc(OC)c32)c1`
> 20 µg/mL

Quick check: MCF-7 activity class (from IC50) of `COc1cc2c(c(OC)c1OC)-c1c(O)ccc(O)c1CC2` ?
> 20 µg/mL

Look up MCF-7 activity class (from IC50) for this compound: `COC1=CC(=O)c2ccc3cc(OC)cc(OC(C)=O)c3c2C1=O`
< 1 µg/mL

Origin of the recorded values: paper PMC3362575
